Test system: NCI-H23
test protocol: NCI tumour cell line growth inhibition, 48 h
Active and inactive are the calls of the source. Rule as the data show it: active = GI50 up to about 1.1 µM and inactive = higher.
measured property: GI50

I would be grateful if you could share the reported GI50 for CC12Cc3cc4c(cc3C1(c1ccc([N+](=O)[O-])cc1)OCCO2)OCO4 (centres undefined) . 42.9 µM (inactive)

Also COC(OC)(c1ccccc1)C(I)I ? 19.2 µM (inactive)

Also COc1ccc2c3c([nH]c2c1[N+](=O)[O-])C(C)N(Cc1ccccc1)CC3 (centres undefined) ? 7.94 µM (inactive)

Also O=c1c2ccccc2c2c3c1cccc3c1cccc3c(=O)c4ccccc4c2c31 ? > 100 µM (inactive)

Also O=C(O)c1nc2ccccc2nc1Nc1ccc(F)cc1 ? 34 µM (inactive)

Also CCOc1ccc2c(c1)[n+]([O-])c(-c1ccc([N+](=O)[O-])cc1)c(N)[n+]2[O-] ? > 100 µM (inactive)

Also C=C[C@H]1CC[C@H]2[C@@H]3CC=C4C[C@@H](OC5OCC(O)C(O)C5O)CC[C@]4(C)[C@H]3CC[C@]12C (some centres undefined) ? 26.1 µM (inactive)

Also CC1(C)CC[C@]2(C(=O)O)CC[C@]3(C)C(=CC[C@@H]4[C@@]5(C)CC[C@@H]6OC(C)(C)OC[C@@]6(C)[C@@H]5CC[C@]43C)[C@H]2C1 ? 3.91 µM (inactive)

Also Cc1ccccc1C(=O)Oc1ccc(OCc2ccccc2)cc1 ? 66.8 µM (inactive)

---

Test system: DU-145
test protocol: NCI tumour cell line growth inhibition, 48 h
Active and inactive are the calls of the source. Rule as the data show it: active = GI50 up to about 1.1 µM and inactive = higher.
Hi! Could you answer with just one of these? active, inactive

# outcome recorded in this test, key = O=C(OCC(Cl)(Cl)Cl)N1CC[C@@H](C2CCCCC2)C1 inactive

Also C=CCNC(=O)CN(CC(=O)OC)C1CCCCC1N(CC(=O)OC)CC(=O)OC (stereo not drawn) ? inactive

Also CCCCC(=O)N/S(=N/C(=O)c1ccccc1)C(Cl)(Cl)Cl (stereo not drawn) ? inactive

Also CC(=O)NC1C(O)C(O)C(CO)OC1n1nc(SCc2ccccc2)c(=O)[nH]c1=O (stereo not drawn) ? inactive

Also COc1c(/C=C/C(C)(C)O)cc(C2CC(=O)c3c(O)cc(O)cc3O2)cc1CC=C(C)C (stereo not drawn) ? inactive

Also CC(=O)O[C@H]1CC2C(C3CCC(C(C)CCC(=O)O)[C@]31C)[C@H](OC(C)=O)C[C@@H]1CC3(CC[C@]21C)OOC1(CC[C@]2(C)C4C[C@H](OC(C)=O)[C@]5(C)C(C(C)CCC(=O)O)CCC5C4[C@H](OC(C)=O)C[C@@H]2C1)OO3 (stereo partly drawn) ? inactive

Also c1ccc2c3c([nH]c2c1)C1CCCN1CC3 (stereo not drawn) ? inactive

Also O=C1CSC(=S)N1c1ccc(F)cc1F ? inactive

Also O=C(O)c1nc2ccccc2nc1Nc1ccc(F)cc1 ? inactive

Also CC(C)CCc1n[nH]c(=O)n1/N=C\c1ccccc1 ? inactive

Also NC(CSC1(c2ccc(Cl)cc2)c2ccccc2-c2ccccc21)C(=O)O (stereo not drawn) ? inactive

Also COc1ccc(-n2nnnc2C2(Nc3ccccc3)CCN(Cc3ccccc3)CC2)cc1 ? inactive

Also Cc1cccc(CNNC(=O)c2cc[n+]([BH2-]C#N)cc2)c1 ? inactive

Also O=c1cc(CO)n(CCc2c[nH]c3ccccc23)cc1O ? inactive

Also O=[N+]([O-])c1cn[n+]([O-])c2ccccc12 ? active

Also O=C(/C=C/c1ccccc1Br)c1ccccc1 ? inactive

Also COc1cc(/C=C2\N=C(c3ccccc3)N(c3nc4c(OC)ccc(OC)c4s3)C2=O)cc(OC)c1OC ? inactive

Also CC(=O)n1c(COS(C)(=O)=O)nc2ccccc21 ? inactive

Also CC(C)OC(=O)C1=C2c3ncccc3C(=O)N2[C@@H](Cl)[C@@H](Cl)[C@@H]1Cl ? inactive

Also O=C(CCCCCCCCC(=O)N1C(=O)CC(=O)N(c2cccc(Cl)c2)C1=S)N1C(=O)CC(=O)N(c2cccc(Cl)c2)C1=S ? inactive

Also CCCCC(=O)OC[n+]1cccc(-c2c(COC(=O)NC(C)C)c(COC(=O)NC(C)C)c3n2CCC3)c1 ? inactive

Also O=c1c2ccccc2nc(N/N=C/c2ccccc2O)n1-c1ccccc1 ? inactive

Also N#Cc1c(N)n(-c2cccc(C(=O)O)c2)c(=O)c2cc([N+](=O)[O-])ccc12 ? inactive

Also C=C1C(=O)OC2CC3(C)OC3CC/C(C)=C/C(OC(C)=O)C12 (stereo not drawn) ? inactive

Also CCC(C)[C@@H](NCc1ccccc1)[C@H](OCc1ccccc1)[C@@H]1COC(C)(C)O1 (stereo partly drawn) ? inactive

Also CC1=NNC(=O)C1C1CC(c2c[nH]c3ccccc23)=NN(C(N)=O)C1=O (stereo not drawn) ? inactive

Also C=C[C@H]1CC[C@H]2[C@@H]3CC=C4C[C@@H](OC5OCC(O)C(O)C5O)CC[C@]4(C)[C@H]3CC[C@]12C (stereo partly drawn) ? inactive

Also O=C(NC(O)(C(F)(F)F)C(F)(F)F)c1ccccc1 ? inactive

Also CCCC[C@H]1C(=O)O[C@H](C)[C@H](NC(=O)c2cccc(NC=O)c2OC)C(=O)O[C@@H](C)[C@@H]1OC(=O)C(C)CC.CCCC[C@H]1C(=O)O[C@H](C)[C@H](NC(=O)c2cccc(NC=O)c2OC)C(=O)O[C@@H](C)[C@@H]1OC(=O)CC(C)C (stereo partly drawn) ? inactive

Also O=S1(=O)c2cnccc2N=C(NCc2cccc3ccccc23)N1c1ccccc1 ? inactive

Also O=c1c(Cl)c(Cl)c(=O)c2sc3cc(Cl)ccc3[nH]c1=2 ? inactive

Also CN(CCCNC(=O)c1cc(-c2ccccc2)nc2ccccc12)CCCNC(=O)c1cc(-c2ccccc2)nc2ccccc12 ? inactive

Also CN(Cc1cnc2nc(N)nc(N)c2n1)c1ccc(C(=O)NC23CC4CC(CC(C4)C2)C3)cc1 ? inactive

Also FC1(F)SC2CCCCCCCCCCC2C1(F)F (stereo not drawn) ? inactive

Also O=c1c2ccccc2n2cnc3ccc(NCCNCCO)c1c32 ? active

Also c1ccc(C[N+]23CN4CN(CN(C4)C2)C3)cc1 ? inactive

Also COC(=O)CC(=O)Nc1sccc1S(=O)(=O)c1ccccc1 ? inactive

Also CC(C)(C)OC(=O)NC(Cc1c[nH]cn1)C(=O)N1CCCC1C(N)=O (stereo not drawn) ? inactive
